Active and inactive are the calls of the source.
// Serine/threonine-protein kinase MRCK alpha (Homo sapiens, UniProt Q5VT25) Kd records

Below, each entry is followed by its recorded Kd result.
C[C@@H]1COC(Nc2ccc3ncnc(Nc4ccc(OCc5nccs5)c(Cl)c4)c3c2)=N1 | > 30 µM (inactive)
COc1ccc(-c2ccc3ncc4c(c3c2)n(-c2ccc(N3CCNCC3)c(C(F)(F)F)c2)c(=O)n4C)cn1 [BGT-226 FREE BASE] | > 30 µM (inactive)

## Task Dear colleague, I am looking for the recorded Kd of the following molecule: `Cc1cc(C(=O)Nc2cc(Oc3ccc4nc(NC(=O)C5CC5)cn4n3)ccc2C)n(C)n1`
## Result > 30 µM (inactive)

## Task # get_value(readout='Kd', item= `O=C(NOC[C@H](O)CO)c1ccc(F)c(F)c1Nc1ccc(I)cc1F` )
## Result > 30 µM (inactive)

----------
target: Tyrosine-protein kinase Lyn (Homo sapiens); further: in the data inactive means no Kd found up to 30 µM
Sequence (P07948 whole entry): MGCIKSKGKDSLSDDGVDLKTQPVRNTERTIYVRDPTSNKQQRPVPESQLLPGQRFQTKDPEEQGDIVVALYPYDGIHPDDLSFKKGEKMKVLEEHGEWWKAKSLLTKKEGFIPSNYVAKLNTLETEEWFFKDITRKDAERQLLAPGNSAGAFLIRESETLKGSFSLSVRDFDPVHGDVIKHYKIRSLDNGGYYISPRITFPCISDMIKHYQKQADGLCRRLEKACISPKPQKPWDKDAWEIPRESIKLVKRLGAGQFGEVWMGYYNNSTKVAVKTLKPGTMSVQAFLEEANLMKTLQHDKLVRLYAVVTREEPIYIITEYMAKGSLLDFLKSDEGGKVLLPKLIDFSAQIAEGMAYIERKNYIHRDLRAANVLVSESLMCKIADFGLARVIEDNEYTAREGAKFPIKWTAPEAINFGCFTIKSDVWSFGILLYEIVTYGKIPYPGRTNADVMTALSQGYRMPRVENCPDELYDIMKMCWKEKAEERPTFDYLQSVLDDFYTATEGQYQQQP
Calls of active or inactive are those of the source.
Please state which outcome applies, choosing from 1 for active, -1 for inactive

CNC(=O)c1cccc(-c2ccc3c(N4CCOC[C@@H]4C)nc(N4CCOC[C@@H]4C)nc3n2)c1 | -1

## Task Can you look up the reported call for `Cn1cc(-c2[nH]c3cc(NC(=O)[C@H](N)C4CCCCC4)cc4c3c2C=NNC4=O)cn1` for me?
## Result 1

## Task Identify the outcome logged in this assay for the molecule shown: `Cc1c(Cn2c(C)nc3c(C(=O)O)cc(N4CCOCC4)cc32)cccc1C(F)(F)F`
## Result -1

## Task Test call, this molecule: COc1ccc(-c2ccc3ncc4c(c3c2)n(-c2ccc(N3CCNCC3)c(C(F)(F)F)c2)c(=O)n4C)cn1 [BGT-226 FREE BASE]
## Result -1

## Task Look up the recorded call for `NC(=O)c1ccc(N(C(N)=O)c2c(F)cccc2F)nc1-c1ccc(F)cc1F` in this test.
## Result -1

## Task Hi team, can someone confirm the assay call for `O=C(Nc1ccc(OC(F)(F)F)cc1)c1sccc1NCc1ccnc2ccccc12` ?
## Result -1

## Task // outcome(item) with item = `C#Cc1cccc(Nc2ncnc3cc4c(cc23)OCCOCCOCCO4)c1`
## Result -1

## Task Recorded test outcome, item `CCc1nc(C(N)=O)c(Nc2ccc(N3CCC(N4CCN(C)CC4)CC3)c(OC)c2)nc1NC1CCOCC1`
## Result -1

----------
molecular target: Protein kinase C delta type (Homo sapiens, UniProt Q05655); further: in the data inactive means no Kd found up to 30 µM
Sequence (Q05655 whole entry): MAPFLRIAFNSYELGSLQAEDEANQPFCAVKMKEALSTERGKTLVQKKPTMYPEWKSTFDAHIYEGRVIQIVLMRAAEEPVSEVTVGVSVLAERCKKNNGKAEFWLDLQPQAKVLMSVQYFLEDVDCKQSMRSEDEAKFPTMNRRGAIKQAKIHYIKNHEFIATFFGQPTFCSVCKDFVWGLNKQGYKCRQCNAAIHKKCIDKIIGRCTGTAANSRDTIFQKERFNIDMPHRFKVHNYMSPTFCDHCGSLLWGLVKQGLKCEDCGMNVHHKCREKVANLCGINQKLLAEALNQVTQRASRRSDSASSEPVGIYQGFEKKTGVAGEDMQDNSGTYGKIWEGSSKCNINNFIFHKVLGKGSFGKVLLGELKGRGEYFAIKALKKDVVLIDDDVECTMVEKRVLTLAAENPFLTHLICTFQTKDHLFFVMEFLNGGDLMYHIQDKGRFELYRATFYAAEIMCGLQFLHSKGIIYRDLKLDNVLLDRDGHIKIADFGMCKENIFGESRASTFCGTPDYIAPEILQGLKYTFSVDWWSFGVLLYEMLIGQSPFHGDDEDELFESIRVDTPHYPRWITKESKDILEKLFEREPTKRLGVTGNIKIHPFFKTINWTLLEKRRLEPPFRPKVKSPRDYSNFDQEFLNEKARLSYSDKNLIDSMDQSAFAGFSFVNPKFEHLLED
Calls of active or inactive are those of the source.
Return exactly one item of Y = active, N = inactive

O=C(O)c1ccc2c(c1)nc(Nc1cccc(Cl)c1)c1ccncc12 [SILMITASERTIB] | N
C=CC(=O)Nc1cc(Nc2nccc(-c3cn(C)c4ccccc34)n2)c(OC)cc1N(C)CCN(C)C [OSIMERTINIB] | N
CC[C@@](C)(Nc1ccnc(-c2c[nH]c3ncccc23)n1)C(=O)NCC(F)(F)F [DECERNOTINIB] | Y
O=C(Nc1ccc(OC(F)(F)F)cc1)c1sccc1NCc1ccnc2ccccc12 [OSI-930] | N
COc1cc(F)c(F)c(Nc2ccc(I)cc2F)c1NS(=O)(=O)C1(C[C@H](O)CO)CC1 [REFAMETINIB] | N
O=C(NOC[C@H](O)CO)c1ccc(F)c(F)c1Nc1ccc(I)cc1F [MIRDAMETINIB] | N

Now take the following compound into account.
## Task What was the test verdict on COc1cccc(Nc2ncnn3ccc(CN4CC[C@@H](N)[C@H](O)C4)c23)c1 [BMS-690514] ?
## Result Y
